- System: multidrug-resistant Pseudomonas aeruginosa MDR-PA 18-174
- method.description: MIC by microbroth dilution, MDR-PA 18-174
- Format: cell-based
- condition: strain MDR-PA 18-174; microbroth dilution, 37° C., 20-22 hours
The entries below come with measured Minimum Bacteriostatic Concentration values attached.
Report only the number, with the unit µg/mL understood.

Reference set (2 entries):
>  <molecule>
Cc1nnc(SCC2=C(C(=O)O)N3C(=O)[C@@H](NC(=O)Cn4cnnn4)[C@H]3SC2)s1 [Cefazolin sodium, cefazolin sodium]

>  <Minimum Bacteriostatic Concentration, µg/mL>
8

$$$$
>  <molecule>
CO/N=C(\C(=O)N[C@@H]1C(=O)N2C(C(=O)O)=C(CSc3nc(=O)c(=O)[nH]n3C)CS[C@H]12)c1csc(N)n1 [Ceftriaxone sodium, ceftriaxone sodium]

>  <Minimum Bacteriostatic Concentration, µg/mL>
128

$$$$

Please examine the following record next.
Short answer please: Minimum Bacteriostatic Concentration, multidrug-resistant Pseudomonas aeruginosa MDR-PA 18-174, entry `COc1ccc(/C=C/C(=O)OCCc2ccc(O)c(O)c2)cc1`
8

* * *

- Test system: multidrug-resistant Pseudomonas aeruginosa MDR-PA 18-202
- method.description: MIC by microbroth dilution, MDR-PA 18-202
- Type: cell-based
- condition: strain MDR-PA 18-202, 37° C., 20-22 hours
assay.readout: Minimum Bacteriostatic Concentration (µg/mL)
Report only the number, with the unit µg/mL understood.

Short answer please: Minimum Bacteriostatic Concentration, multidrug-resistant Pseudomonas aeruginosa MDR-PA 18-202, entry Cc1nnc(SCC2=C(C(=O)O)N3C(=O)[C@@H](NC(=O)Cn4cnnn4)[C@H]3SC2)s1 [Cefazolin sodium, cefazolin sodium]
128

Short answer please: Minimum Bacteriostatic Concentration, multidrug-resistant Pseudomonas aeruginosa MDR-PA 18-202, entry CO/N=C(\C(=O)N[C@@H]1C(=O)N2C(C(=O)O)=C(CSc3nc(=O)c(=O)[nH]n3C)CS[C@H]12)c1csc(N)n1 [Ceftriaxone sodium, ceftriaxone sodium]
16

* * *

The entries below come with measured Minimum Bacteriostatic Concentration values attached.
- Tested on: methicillin-resistant Staphylococcus aureus MRSA 18-222
- method.description: MIC by microbroth dilution, MRSA 18-222
- Assay type: cell-based
- condition: strain MRSA 18-222; microbroth dilution, 37° C., 20-22 hours

Reference set (4 entries):
>  <compound>
CO/N=C(\C(=O)N[C@@H]1C(=O)N2C(C(=O)O)=C(CSc3nc(=O)c(=O)[nH]n3C)CS[C@H]12)c1csc(N)n1 [Ceftriaxone sodium, ceftriaxone sodium]

>  <Minimum Bacteriostatic Concentration>
>128 µg/mL

$$$$
>  <compound>
OCCc1ccc(O)c(O)c1 [Hydroxytyrosol]

>  <Minimum Bacteriostatic Concentration>
>128 µg/mL

$$$$
>  <compound>
Cc1nnc(SCC2=C(C(=O)O)N3C(=O)[C@@H](NC(=O)Cn4cnnn4)[C@H]3SC2)s1 [Cefazolin sodium, cefazolin sodium]

>  <Minimum Bacteriostatic Concentration>
>128 µg/mL

$$$$
>  <compound>
COc1ccc(/C=C/C(=O)OCCc2ccc(O)c(O)c2)cc1

>  <Minimum Bacteriostatic Concentration>
4 µg/mL

$$$$

Any idea what its Minimum Bacteriostatic Concentration is? The compound is `COc1ccc(C=CC(=O)O)cc1`
>128 µg/mL

* * *

- System: multidrug-resistant Pseudomonas aeruginosa MDR-PA 18-202
- method.description: MIC by microbroth dilution, MDR-PA 18-202
- Format: cell-based
- condition: strain MDR-PA 18-202, 37° C., 20-22 hours
assay.readout: Minimum Bacteriostatic Concentration

Reference set (2 entries):
>  <compound>
OCCc1ccc(O)c(O)c1 [Hydroxytyrosol]

>  <system.under.test>
multidrug-resistant Pseudomonas aeruginosa MDR-PA 18-202

>  <Minimum Bacteriostatic Concentration>
>128 µg/mL

$$$$
>  <compound>
COc1ccc(/C=C/C(=O)OCCc2ccc(O)c(O)c2)cc1

>  <system.under.test>
multidrug-resistant Pseudomonas aeruginosa MDR-PA 18-202

>  <Minimum Bacteriostatic Concentration>
>128 µg/mL

$$$$

Please examine the following record next.
Any idea what its Minimum Bacteriostatic Concentration is? The compound is COc1ccc(C=CC(=O)O)cc1 [4-methoxycinnamic acid]
>128 µg/mL
